Below, each entry is listed alongside its reported loss of heat-induced scrunching incidence.
tested on: Dugesia japonica; assay: loss of heat-induced scrunching incidence (% planarians (vehicle-normalised)); higher = higher incidence or increase relative to vehicle control; conditions: exposure time: 15 min to 3 h acute
Counter-ions that a name gives are not always drawn.

[
  {
    "Compound": "Cc1ncc2n1-c1ccc(Cl)cc1C(c1ccccc1F)=NC2 [midazolam] (56.2 µM)",
    "Result": "≤ 0"
  }
]

What measured loss of heat-induced scrunching incidence goes with Cc1cc2c(s1)Nc1ccccc1N=C2N1CCN(C)CC1 [olanzapine] (100 µM) ?
68.2

What measured loss of heat-induced scrunching incidence goes with CN[C@H]1CC[C@@H](c2ccc(Cl)c(Cl)c2)c2ccccc21 [sertraline hydrochloride] (10 µM) ?
33.3

###

system: Dugesia japonica; experiment: crawl-out incidence (% planarians); higher = higher incidence or increase relative to vehicle control; details: exposure time: 15 min to 3 h acute
Below, each entry is listed alongside its reported crawl-out incidence.
Please respond with just the number, no unit label.

Consider the following illustrative entries.
[
  {
    "Compound": "CN(C)CCCN1c2ccccc2CCc2ccccc21 [imipramine] (0.316 µM)",
    "Number": 0
  },
  {
    "Compound": "O=C1CCc2ccc(OCCCCN3CCN(c4cccc(Cl)c4Cl)CC3)cc2N1 [aripiprazole] (1 µM)",
    "Number": 0
  },
  {
    "Compound": "O=C(CCCN1CC=C(n2c(=O)[nH]c3ccccc32)CC1)c1ccc(F)cc1 [droperidol] (1 µM)",
    "Number": 0
  },
  {
    "Compound": "CNCC[C@H](Oc1cccc2ccccc12)c1cccs1 [s-duloxetine] (1 µM)",
    "Number": 4.17
  }
]

Turning now to a further record.
What measured crawl-out incidence goes with CN(C)CCC[C@@]1(c2ccc(F)cc2)OCc2cc(C#N)ccc21 [escitalopram] (10 µM) ?
0

###

test system: Dugesia japonica; experiment: C-shape incidence (% planarians (vehicle-normalised)); higher = higher incidence or increase relative to vehicle control; details: exposure time: 15 min to 3 h acute
Structures can show the parent of a compound that is named as a salt.
Test readout: C-shape incidence
Please respond with just the number, no unit label.

Consider the following illustrative entries.
[
  {
    "Molecule": "CNCCC(Oc1ccc(C(F)(F)F)cc1)c1ccccc1 (stereo not drawn) [fluoxetine hydrochloride] (3.16 µM)",
    "C-shape incidence": 0
  },
  {
    "Molecule": "CN[C@H]1CC[C@@H](c2ccc(Cl)c(Cl)c2)c2ccccc21 [sertraline hydrochloride] (3.16 µM)",
    "C-shape incidence": 0
  },
  {
    "Molecule": "Cc1ncc2n1-c1ccc(Cl)cc1C(c1ccccc1F)=NC2 [midazolam] (100 µM)",
    "C-shape incidence": 20.8
  },
  {
    "Molecule": "Cc1ncc2n1-c1ccc(Cl)cc1C(c1ccccc1F)=NC2 [midazolam] (17.8 µM)",
    "C-shape incidence": 0
  },
  {
    "Molecule": "CC(NC(C)(C)C)C(=O)c1cccc(Cl)c1 (stereo not drawn) [bupropion] (100 µM)",
    "C-shape incidence": 0
  },
  {
    "Molecule": "Cc1cc2c(s1)Nc1ccccc1N=C2N1CCN(C)CC1 [olanzapine] (316 µM)",
    "C-shape incidence": 27.3
  },
  {
    "Molecule": "CN(C)CCCN1c2ccccc2CCc2ccccc21 [imipramine] (0.316 µM)",
    "C-shape incidence": 0
  },
  {
    "Molecule": "O=C1CCc2ccc(OCCCCN3CCN(c4cccc(Cl)c4Cl)CC3)cc2N1 [aripiprazole] (3.16 µM)",
    "C-shape incidence": 0
  },
  {
    "Molecule": "O=C1CC2(CCCC2)CC(=O)N1CCCCN1CCN(c2ncccn2)CC1 [buspirone] (100 µM)",
    "C-shape incidence": 0
  },
  {
    "Molecule": "CN(C)CCCC1(c2ccc(F)cc2)OCc2cc(C#N)ccc21 (stereo not drawn) [citalopram hydrobromide] (1000 µM)",
    "C-shape incidence": 0
  }
]

What measured C-shape incidence goes with CNCC[C@H](Oc1cccc2ccccc12)c1cccs1 [s-duloxetine] (10 µM) ?
0

What measured C-shape incidence goes with O=C1CC2(CCCC2)CC(=O)N1CCCCN1CCN(c2ncccn2)CC1 [buspirone] (3.16 µM) ?
0

###

test system: Dugesia japonica; test: loss of phototaxis incidence (% planarians (vehicle-normalised)); higher = higher incidence or increase relative to vehicle control; conditions: exposure time: 15 min to 3 h acute
Counter-ions that a name gives are not always drawn.
Decide by loss of phototaxis incidence: equal to or exceeding 30 means true, less means false.

Some solved cases for reference:
[
  {
    "Compound": "O=C(CCCN1CCC(O)(c2ccc(Cl)cc2)CC1)c1ccc(F)cc1 [haloperidol] (31.6 µM)",
    "Assigned class": "false"
  },
  {
    "Compound": "Cc1cc2c(s1)Nc1ccccc1N=C2N1CCN(C)CC1 [olanzapine] (316 µM)",
    "Assigned class": "false"
  },
  {
    "Compound": "CCCCNc1c(C(=O)OCC)c(C)nc2c1cnn2CC [tracazolate hydrochloride] (31.6 µM)",
    "Assigned class": "true"
  },
  {
    "Compound": "[Cl-].[Na+] [sodium chloride] (3470 µM)",
    "Assigned class": "false"
  },
  {
    "Compound": "CN(C)CCCC1(c2ccc(F)cc2)OCc2cc(C#N)ccc21 (stereo not drawn) [citalopram hydrobromide] (10 µM)",
    "Assigned class": "false"
  }
]

Entry CN(C)CCC[C@@]1(c2ccc(F)cc2)OCc2cc(C#N)ccc21 [escitalopram] (31.6 µM) : is its loss of phototaxis incidence no less than 30?
false

Entry CNCC[C@H](Oc1cccc2ccccc12)c1cccs1 [s-duloxetine] (31.6 µM) : is its loss of phototaxis incidence no less than 30?
true

Entry O=C(CCCN1CCC(O)(c2ccc(Br)cc2)CC1)c1ccc(F)cc1 [bromperidol] (31.6 µM) : is its loss of phototaxis incidence no less than 30?
false

###

test system: Dugesia japonica; experiment: pharynx extrusion incidence (% planarians (vehicle-normalised)); higher = higher incidence or increase relative to vehicle control; conditions: exposure time: 15 min to 3 h acute
Counter-ions that a name gives are not always drawn.
Test readout: pharynx extrusion incidence

Consider the following illustrative entries.
[
  {
    "Compound": "O=C(CCCN1CCC(O)(c2ccc(Br)cc2)CC1)c1ccc(F)cc1 [bromperidol] (10 µM)",
    "Test readout": "pharynx extrusion incidence",
    "Result": 0
  },
  {
    "Compound": "O=C1CCc2ccc(OCCCCN3CCN(c4cccc(Cl)c4Cl)CC3)cc2N1 [aripiprazole] (31.6 µM)",
    "Test readout": "pharynx extrusion incidence",
    "Result": 4.17
  },
  {
    "Compound": "CNCC[C@H](Oc1cccc2ccccc12)c1cccs1 [s-duloxetine] (31.6 µM)",
    "Test readout": "pharynx extrusion incidence",
    "Result": 26.1
  },
  {
    "Compound": "CN(C)CCCN1c2ccccc2CCc2ccccc21 [imipramine] (10 µM)",
    "Test readout": "pharynx extrusion incidence",
    "Result": 0
  },
  {
    "Compound": "O=C(O)/C=C\\C(=O)O [maleic acid] (200 µM)",
    "Test readout": "pharynx extrusion incidence",
    "Result": 0
  },
  {
    "Compound": "Cc1ncc2n1-c1ccc(Cl)cc1C(c1ccccc1F)=NC2 [midazolam] (17.8 µM)",
    "Test readout": "pharynx extrusion incidence",
    "Result": 0
  },
  {
    "Compound": "O=C(CCCN1CCC(O)(c2ccc(Cl)cc2)CC1)c1ccc(F)cc1 [haloperidol] (31.6 µM)",
    "Test readout": "pharynx extrusion incidence",
    "Result": 0
  },
  {
    "Compound": "CN1CCN(C2=Nc3cc(Cl)ccc3Nc3ccccc32)CC1 [clozapine] (3.16 µM)",
    "Test readout": "pharynx extrusion incidence",
    "Result": 0
  }
]

What measured pharynx extrusion incidence goes with CNCCC(Oc1ccc(C(F)(F)F)cc1)c1ccccc1 (centres undefined) [fluoxetine hydrochloride] (31.6 µM) ?
0

###

tested on: Dugesia japonica; assay: noxious heat displacement strength vs vehicle (% change vs vehicle); higher = higher incidence or increase relative to vehicle control; details: exposure time: 15 min to 3 h acute
Counter-ions that a name gives are not always drawn.
Decide by noxious heat displacement strength: equal to or exceeding -40 means T, less means F.

Some solved cases for reference:
[
  {
    "Compound": "CNCC[C@H](Oc1cccc2ccccc12)c1cccs1 [s-duloxetine] (10 µM)",
    "Assigned class": "T"
  },
  {
    "Compound": "O=C(CCCN1CC=C(n2c(=O)[nH]c3ccccc32)CC1)c1ccc(F)cc1 [droperidol] (10 µM)",
    "Assigned class": "T"
  }
]

Proceed to the following item.
Entry CN[C@H]1CC[C@@H](c2ccc(Cl)c(Cl)c2)c2ccccc21 [sertraline hydrochloride] (3.16 µM) : is its noxious heat displacement strength no less than -40?
T

Source of measurements: the supplement of paper PMC11781733
